As shown below, each of these compounds has a reported CLint scaled value.
EXPERIMENT DESCRIPTION: Metabolic stability test
Type: in vitro ADME
TEST PARAMETERS: liver microsomes; human hepatic microsomes, 0 to 60 minutes; read-out: metabolic clearance CLint
MEASURED PROPERTY: CLint scaled (mL/min/kg)

INSERT INTO measurements (compound, value_measured) VALUES
  ('Cn1c(C(=O)N2C[C@H]3C[C@@]45CC[C@@H]2[C@@H]3[C@@]42CCN(CC3CC3)[C@@H]5Cc3ccc(O)cc32)cccc1=O [Example 10]', 13),
  ('O=C(c1ccc(=O)[nH]n1)N1C[C@H]2C[C@@]34CC[C@@H]1[C@@H]2[C@@]31CCN(CC2CC2)[C@@H]4Cc2ccc(O)cc21 [Example 16]', 18),
  ('O=C(c1cccc(=O)[nH]1)N1C[C@H]2C[C@@]34CC[C@@H]1[C@@H]2[C@@]31CCN(CC2CC2)[C@@H]4Cc2ccc(O)cc21 [Example 7]', 5.6);
